Entry source: patent US9018214B2

In this section, each of the compounds is paired with its reported inhibition at […].
# Subject of test: BIR3 domain of human cIAP-1 (residues 267-363) (Homo sapiens (Human))
# Sequence (Q13490 267-363): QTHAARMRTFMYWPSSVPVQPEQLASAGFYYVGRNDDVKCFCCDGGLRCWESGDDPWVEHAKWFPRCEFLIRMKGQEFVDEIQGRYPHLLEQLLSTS
# Assay info: cIAP-1 in vitro competitive displacement binding assay (fluorescence polarization; Probe A AVPIK(5&6FAM)-amide or Probe B AbuRPFK(5&6FAM)-amide)
# Test settings: 3 h, read-out: IC50 or PI cIAP1: PI
Where a name gives a salt, the structure may show the parent alone.
Measured metric: inhibition at […]

> print(dat)
                                   compound                           subject.of.test    measured.metric  reading
1  C[C@@H]1CN(CC(=O)N2CC(C)(C)c3ncc(Cc4ccc(F)cc4F)cc32)[C@@H](CN2CC[C@H](F)C2)CN1 [Example 204, dihydrochloride]  BIR3 domain of human cIAP-1 (residues 267-363) (Homo sapiens (Human))  inhibition at […]      91%
2  C[C@@H]1CN(CC(=O)N2CC(C)(C)c3cnc(Cc4ccc(F)cc4F)cc32)[C@@H](C(=O)N(C)C)CN1 [Example 164, dihydrochloride]  BIR3 domain of human cIAP-1 (residues 267-363) (Homo sapiens (Human))  inhibition at […]      86%
3  C[C@@H]1CN(CC(=O)N2CC(C)(C)c3cnc(Cc4ccc(F)cc4F)cc32)[C@@H](Cn2ncccc2=O)CN1 [Example 194, dihydrochloride]  BIR3 domain of human cIAP-1 (residues 267-363) (Homo sapiens (Human))  inhibition at […]      99%
